Where do these numbers come from? They come from patent US20210037856A1.

Tested on: rumen fluid
run.description: in vitro ruminal fermentation, 22 muramidases, 12 h (Example 4)
Design: species or system cow
run.conditions: summed carbon in VFA after 12 h; muramidase 0.20 mg/40 ml
property: Carbon in VFA (mmol/L)
Write it as a number; the unit mmol/L goes unstated.

Problem: Give the value of Carbon in VFA reported for the following: N: mature muramidase polypeptide from Ovatospora brasiliensis, GH25; N in Example 4 (protein, listed as Ovatospora brasiliensis) FDISNWQPAGTVDFAAAYSSGARFVIIKATEGTSYIDPSFSSHYTKATNAGFIRGGYHFAHPGETTGAAEADYFIAHGGGWSNDGITLPGMLDLESENKGQCWGLSTSAMVSWIKSFSDRYKSRTGVYPLIYTNPSWWSACTGNSNAFVNTNPLVLARYASAPGTIPGGWPYQTIWQNSDSYAYGGDSDIFNGSLDRLKALAKGS
Result: 253
